# System: Nannizzia gypsea
# Protocol Description: Antifungal activity against Microsporum gypseum CCC 115 after 48 hrs by broth microdilution technique
# Format: functional
# Details: CCC 115, 48 h
Endpoint Label: MIC (µg/mL)
The reply should contain only the number, in µg/mL.

Clc1ccc2nc(-c3cccnc3)ccc2c1 = 31

Now take the following compound into account.
Prompt line: # get_value(readout='MIC', item= CC(=O)N1CCN(c2ccc(OCC3COC(Cn4ccnc4)(c4ccc(Cl)cc4Cl)O3)cc2)CC1 (stereo not drawn) [KETOCONAZOLE] )
Response line: 0.06

* * *

Collected MIC80 values appear next to each entry.
# Test system: Cryptococcus neoformans
# Protocol Description: Antifungal activity against Cryptococcus neoformans IM 972724 after 48 hrs by broth microdilution technique
# Assay type: functional
# Details: IM 972724, 48 h
Form field: result (number plus unit)

Example results:
C[C@@H]1[C@H](O)[C@@H](C)/C=C/C=C/C=C/C=C/C=C/C=C/C=C/[C@H](O[C@@H]2O[C@H](C)[C@@H](O)[C@H](N)[C@@H]2O)C[C@@H]2O[C@](O)(C[C@@H](O)C[C@@H](O)[C@H](O)CC[C@@H](O)C[C@@H](O)CC(=O)O[C@H]1C)C[C@H](O)[C@H]2C(=O)O [AMPHOTERICIN B] = 0.06 mg/L
Clc1ccc2nc(/C=C/c3ccncc3)ccc2c1 = 62.5 mg/L
C(=C\c1ccc2ccccc2n1)/c1ccncc1 = 31.2 mg/L
Cc1ccc2nc(-c3ccncc3)ccc2c1 = 31.2 mg/L
c1ccc2nc(-c3ccncc3)ccc2c1 = 31.2 mg/L

Prompt line: Consider the compound CCc1ccc2nc(-c3ccccn3)ccc2c1 and give its measured MIC80.
Response line: 7.8 mg/L

Prompt line: Entry Fc1ccc2nc(/C=C/c3ccccn3)ccc2c1 : reported MIC80 = ?
Response line: 62.5 mg/L
